- Assay target: α3β3γ2S GABAA receptors (Rattus norvegicus, UniProt P18508+P20236)
- Measurement description: 3H-flunitrazepam competition binding, α3β3γ2S
Assay endpoint: pKi
As a rule, pKi stands for the negative log10 of the concentration, concentration in M.

Tested on α3β3γ2S GABAA receptors (Rattus norvegicus, UniProt P18508+P20236), the item C#Cc1ccc2c(c1)C(c1ccccc1F)=N[C@H](C)c1c(C(=O)NC)ncn1-2 showed pKi equal to 6.18

---

- Measurement description: In vitro hydrolytic stability study in rat plasma
- Assay type: in vitro ADME
- Test context: rat, plasma
Assay endpoint: remaining at 1 h, 0.2 μg/ml

Record C#Cc1ccc2c(c1)C(c1ccccc1F)=N[C@H](C)c1c(C(=O)NC)ncn1-2 , field remaining at 1 h, 0.2 μg/ml: 97.2%

---

- Measurement description: In vitro hydrolytic stability study in rat plasma
- Type: in vitro ADME
- Test context: rat, plasma
Assay endpoint: remaining at 0 h, 0.2 μg/ml (%)
# output: bare number, implied unit %

Record C#Cc1ccc2c(c1)C(c1ccccc1F)=N[C@H](C)c1c(C(=O)NC)ncn1-2 , field remaining at 0 h, 0.2 μg/ml: 100

---

- Measurement description: Plasma protein and brain tissue binding
- Type: in vitro ADME, rat
- Test context: rat, brain tissue
Assay endpoint: fraction unbound
// return just the number, without any unit appended

Record C#Cc1ccc2c(c1)C(c1ccccc1F)=N[C@H](C)c1c(C(=O)NC)ncn1-2 , field fraction unbound: 0.0661

---

- Measurement description: Plasma protein and brain tissue binding
- Type: in vitro ADME, rat
- Test context: rat, plasma
Assay endpoint: fraction unbound
// return just the number, without any unit appended

Record C#Cc1ccc2c(c1)C(c1ccccc1F)=N[C@H](C)c1c(C(=O)NC)ncn1-2 , field fraction unbound: 0.135

---

- Measurement description: In vitro hydrolytic stability study in rat plasma
- Format: in vitro ADME
- Test context: rat, plasma
Assay endpoint: remaining at 4 h, 0.2 μg/ml (%)
# output: bare number, implied unit %

Record C#Cc1ccc2c(c1)C(c1ccccc1F)=N[C@H](C)c1c(C(=O)NC)ncn1-2 , field remaining at 4 h, 0.2 μg/ml: 96.7

---

- Measurement description: Pharmacokinetic study, plasma and brain concentrations after i.p. injection
- Test context: rat, plasma, ip, 1 mg/kg, Plasma total concentration, 1 mg/kg i.p., 20 min
Assay endpoint: concentration at 20 min (nM)
# output: bare number, implied unit nM

Record C#Cc1ccc2c(c1)C(c1ccccc1F)=N[C@H](C)c1c(C(=O)NC)ncn1-2 [MP-III-022] , field concentration at 20 min: 62.4

---

- Assay target: α2β3γ2S GABAA receptors (Rattus norvegicus, UniProt P18508+P23576)
- Measurement description: 3H-flunitrazepam competition binding, α2β3γ2S
Assay endpoint: Ki (µM)
# output: bare number, implied unit µM

Record C#Cc1ccc2c(c1)C(c1ccccc1F)=N[C@H](C)c1c(C(=O)NC)ncn1-2 , field Ki: 0.36

---

- Measurement description: In vitro hydrolytic stability study in rat plasma
- Format: in vitro ADME
- Test context: rat, plasma
Assay endpoint: remaining at 2 h, 0.2 μg/ml

Record C#Cc1ccc2c(c1)C(c1ccccc1F)=N[C@H](C)c1c(C(=O)NC)ncn1-2 , field remaining at 2 h, 0.2 μg/ml: 98.5%

---

- Measurement description: In vitro hydrolytic stability study in rat plasma
- Assay type: in vitro ADME
- Test context: rat, plasma
Assay endpoint: remaining at 0.5 h, 0.2 μg/ml (%)
# output: bare number, implied unit %

Record C#Cc1ccc2c(c1)C(c1ccccc1F)=N[C@H](C)c1c(C(=O)NC)ncn1-2 , field remaining at 0.5 h, 0.2 μg/ml: 97.2
